# Study System: JAK1 (Homo sapiens)
# Sequence (P23458 whole entry): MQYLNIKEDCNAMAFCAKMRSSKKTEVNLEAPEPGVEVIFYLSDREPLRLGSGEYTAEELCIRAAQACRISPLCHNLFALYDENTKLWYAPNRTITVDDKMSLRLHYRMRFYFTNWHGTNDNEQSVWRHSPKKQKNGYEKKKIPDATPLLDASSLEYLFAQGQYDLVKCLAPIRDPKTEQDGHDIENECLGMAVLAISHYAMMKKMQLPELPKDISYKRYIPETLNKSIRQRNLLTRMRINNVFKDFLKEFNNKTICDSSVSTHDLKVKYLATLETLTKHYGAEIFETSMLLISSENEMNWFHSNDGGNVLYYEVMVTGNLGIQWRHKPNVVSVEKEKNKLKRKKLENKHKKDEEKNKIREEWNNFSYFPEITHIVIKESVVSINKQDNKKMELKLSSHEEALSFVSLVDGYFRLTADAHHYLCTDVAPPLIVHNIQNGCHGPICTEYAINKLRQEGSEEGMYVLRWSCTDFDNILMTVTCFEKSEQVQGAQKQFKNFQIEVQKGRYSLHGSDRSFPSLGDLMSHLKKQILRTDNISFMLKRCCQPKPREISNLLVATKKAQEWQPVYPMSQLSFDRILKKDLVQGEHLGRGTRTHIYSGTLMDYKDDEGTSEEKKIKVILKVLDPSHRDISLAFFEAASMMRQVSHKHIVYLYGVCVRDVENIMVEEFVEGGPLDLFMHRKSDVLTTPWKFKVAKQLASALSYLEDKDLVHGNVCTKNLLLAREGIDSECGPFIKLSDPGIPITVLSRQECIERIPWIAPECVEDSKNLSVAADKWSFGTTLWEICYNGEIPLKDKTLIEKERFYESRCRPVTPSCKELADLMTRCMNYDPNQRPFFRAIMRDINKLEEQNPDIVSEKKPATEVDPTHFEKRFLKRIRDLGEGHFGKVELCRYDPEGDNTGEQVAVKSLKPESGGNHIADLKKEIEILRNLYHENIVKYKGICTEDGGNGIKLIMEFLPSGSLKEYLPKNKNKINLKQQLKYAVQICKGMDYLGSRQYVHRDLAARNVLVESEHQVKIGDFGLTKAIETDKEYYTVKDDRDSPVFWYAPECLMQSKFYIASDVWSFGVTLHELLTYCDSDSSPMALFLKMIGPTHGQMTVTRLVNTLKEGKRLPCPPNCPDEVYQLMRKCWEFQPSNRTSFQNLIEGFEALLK
# Assay Explanation: ADP-Glo luminescent kinase assay, recombinant JAK1, Poly E4Y1 substrate, […] ATP
# Assay type: biochemical
Metric Name: pIC50
pIC50 here is simply -log10 of the concentration when that concentration is written in mol/L.

Problem: pIC50 lookup needed for NC(=O)Nc1sc(-c2ccc(F)cc2)cc1C(N)=O [TPCA-1] , thanks.
Solution: 7.36
